The reported measurements were obtained from patent US4837204A.

pIC50 data for human renal renin (Homo sapiens, UniProt P00797) follow.
Numbers only, as −log10 of the molar value.

Previously resolved entries follow.
Molecule	System Name	Reported Metric	Data Value
COc1ccc(C[C@H](NC(=O)N(C)C)C(=O)N[C@@H](Cc2c[nH]cn2)C(=O)N[C@@H](CC2CCCCC2)[C@@H](O)[C@@H](O)CN=[N+]=[N-])cc1 [Example 69]	human renal renin (Homo sapiens, UniProt P00797)	pIC50	8.00
CCOC(=O)N[C@@H](Cc1ccccc1)C(=O)N[C@@H](CC(C)C)C(=O)N[C@@H](CC1CCCCC1)C(O)C(O)C(O)C(C)C (single isomer, unassigned) [Example 36B]	human renal renin (Homo sapiens, UniProt P00797)	pIC50	8.00

Below: the item to evaluate.
-- ask Need pIC50 of C[C@H](NC(=O)[C@H](Cc1ccccc1)NC(=O)OC(C)(C)C)C(=O)N[C@@H](CC1CCCCC1)[C@@H](O)[C@@H](O)CN=[N+]=[N-] [Example 20] , thanks.
-- reply 8.00
